Sequence of the target: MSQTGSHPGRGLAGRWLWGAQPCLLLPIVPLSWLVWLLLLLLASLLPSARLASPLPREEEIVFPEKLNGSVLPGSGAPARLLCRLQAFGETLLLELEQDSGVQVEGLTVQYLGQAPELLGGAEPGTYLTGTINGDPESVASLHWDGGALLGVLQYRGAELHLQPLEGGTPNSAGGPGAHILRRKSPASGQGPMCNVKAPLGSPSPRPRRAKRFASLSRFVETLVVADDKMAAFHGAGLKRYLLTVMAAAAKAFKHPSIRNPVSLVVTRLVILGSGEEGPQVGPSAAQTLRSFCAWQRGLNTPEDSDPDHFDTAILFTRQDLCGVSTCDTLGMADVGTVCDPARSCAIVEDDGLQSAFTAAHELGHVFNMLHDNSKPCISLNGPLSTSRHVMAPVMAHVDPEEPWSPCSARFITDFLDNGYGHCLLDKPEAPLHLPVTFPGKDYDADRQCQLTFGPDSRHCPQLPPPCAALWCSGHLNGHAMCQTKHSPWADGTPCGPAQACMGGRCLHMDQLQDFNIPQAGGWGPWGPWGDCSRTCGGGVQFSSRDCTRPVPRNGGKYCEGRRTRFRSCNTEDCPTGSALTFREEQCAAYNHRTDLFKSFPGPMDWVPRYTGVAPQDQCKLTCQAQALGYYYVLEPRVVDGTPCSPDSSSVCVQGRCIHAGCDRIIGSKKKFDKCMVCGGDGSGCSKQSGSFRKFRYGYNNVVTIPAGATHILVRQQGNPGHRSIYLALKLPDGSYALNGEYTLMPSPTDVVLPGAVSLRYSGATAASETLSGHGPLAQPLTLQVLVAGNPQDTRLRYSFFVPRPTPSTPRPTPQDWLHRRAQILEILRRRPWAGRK
OBSERVABLE: IC50 (nM)
Number only, in nM; omit the unit.

Cc1cc(CCC2CCN(S(=O)(=O)C[C@](C)(C[C@H](C)c3ncc(F)cn3)N(O)C=O)CC2)n(C)n1    5.4
C[C@@H](C[C@@](C)(CS(=O)(=O)N1CCC(CCc2ncc(C(F)(F)F)cc2Cl)CC1)N(O)C=O)c1ncc(F)cn1    4.2
C[C@@H](C[C@@](C)(CS(=O)(=O)N1CCC(CCc2ccc(F)cc2Br)CC1)N(O)C=O)c1ncc(F)cn1    0.48
C[C@@H](C[C@@](C)(CS(=O)(=O)N1CCC(NCc2ccc(Cl)cc2Cl)CC1)N(O)C=O)c1ncc(F)cn1    2200
C[C@@H](C[C@@](C)(CS(=O)(=O)N1CCC(CCc2ccc(C(F)(F)F)cc2Cl)CC1)N(O)C=O)c1ncc(F)cn1    0.48

// query Any idea what IC50 was measured for C[C@@H](C[C@@](C)(CS(=O)(=O)N1CCN(CCc2ccc(Cl)cc2Cl)CC1)N(O)C=O)c1ncc(F)cn1 ?
// result 3.8

// query Any idea what IC50 was measured for Cc1cc(C(F)(F)F)ccc1CCC1CCN(S(=O)(=O)C[C@](C)(C[C@H](C)c2ncc(F)cn2)N(O)C=O)CC1 ?
// result 0.49
